Target: T1, 4H94-AA
T1 chain: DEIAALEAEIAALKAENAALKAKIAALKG
Assay: two-hybrid library CCmax;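 further: natural log of median RNA to DNA barcode read ratio; higher means stronger binding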
Conditions: mean of both orientations
measurement_kind: interaction score

| binder | interaction score |
| --- | --- |
| DEIAALKAKIAALKAKNAALKAENAALEG [4H891-AA] | -0.169 |
| DEIAALKAKIAALKAENAALEAEIAALKG [4H850-AA] | 1.79 |
| DKNAALEAEIAALEAKNAALKAEIAALKG [4H3130-AA] | -0.202 |
| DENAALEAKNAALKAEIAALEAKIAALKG [4H1478-AA] | -1.45 |

(a) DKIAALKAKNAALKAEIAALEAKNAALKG [4H3016-AA]
(b) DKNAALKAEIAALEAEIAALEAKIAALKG [4H3590-AA]
(c) DKNAALEAKIAALEAKNAALEAKIAALEG [4H3381-AA]
hey, can you rank those binders up there by interaction score? biggest number first please Record the ranking as a list of labels in the requested order.
a, b, c
(a: -0.745, b: -1.15, c: -1.76)

Entry source: paper PMC10397247
